Target: VEGF165 (human, UniProt P15692-4 27-191)
Sequence (P15692 other isoform, or with tags, fused parts or gaps): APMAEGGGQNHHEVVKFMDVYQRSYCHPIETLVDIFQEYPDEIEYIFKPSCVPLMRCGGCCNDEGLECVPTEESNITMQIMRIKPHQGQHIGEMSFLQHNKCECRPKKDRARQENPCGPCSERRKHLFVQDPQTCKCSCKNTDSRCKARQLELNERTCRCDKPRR
Assay: BLI; BLI (Octet RED96), 25 C, 1000 rpm, 200 uL binding buffer (composition not given), VEGF165 6.25-100 nM, BSA blank as reference
Conditions: protein: commercial; chain copies: 2; largely parallel G-quadruplex by CD
Endpoint: pKd
A value of pKd is the negative decimal logarithm of a concentration given in moles per litre.

Quick one: pKd of AGGGACGGGACCGTCTTCCAGACAAGAGTGCAGGGAGGGACGGGA (structured_DNA) [G4-Apt] ?
9.27
